# Assay explanation: Cmax in rat at 5 mg/kg,IG measured upto 24 hrs by LC-MS/MS analysis
# Format: ADME, organism-based
# Design: dose 5 mg/kg, time < 24 hrs, route ig
# Condition label: in vivo, po
Quantity name: Cmax

As a guide, the following entries are already answered.
structure=CCCc1cc2cnc(Nc3ccc(N4CCN(C)CC4)cc3)nc2n1-c1cccc(N=S(C)(C)=O)n1 measured_value="29.4 ng/mL"
structure=CCc1cc2cnc(Nc3ccc(N4CCN(C)CC4)cc3)nc2n1-c1cccc(N=S(C)(C)=O)n1 measured_value="8.1 ng/mL"
structure=CN1CCN(C2CCN(c3ccc(Nc4ncc5c(F)c(C6CC6)n(-c6cccc(C(C)(C)O)n6)c5n4)cc3F)CC2)CC1 measured_value="117 ng/mL"

Would you kindly look at the next entry?
According to the records, this molecule Cc1cc2cnc(Nc3ccc(N4CCN(C)CC4)cc3)nc2n1-c1cccc(C(C)(C)O)n1 displays Cmax of 125 ng/mL
